System: Pseudomonas aeruginosa ATCC 27853
experimental.protocol: Evaluation test for disinfecting effect, broth dilution method CLSI(M7-A7)2006
Type: cell-based
cond: ATCC27853, S (susceptible): concentration which caused 80% or more reduction in diameter of the aggregation, 37°C, 18 hours, read-out: MIC (µg/mL) S
readout.name: MIC

Illustrative cases are given below, each with its answer.
For the record "NC[C@H]1O[C@H](O[C@H]2[C@H](O)[C@@H](O[C@H]3O[C@H](CO)[C@@H](O)[C@H](N)[C@H]3O)[C@H](N)C[C@@H]2N)[C@H](N)C[C@@H]1O" , what value of MIC is listed for Pseudomonas aeruginosa ATCC 27853? ≥ 1 µg/mL

For the record CC1(C)S[C@@H]2[C@H](NC(=O)C(C(=O)O)c3ccccc3)C(=O)N2[C@H]1C(=O)O (stereo partly shown) , what value of MIC is listed for Pseudomonas aeruginosa ATCC 27853? ≥ 256 µg/mL

Others:
For the record "CC[C@H]1OC(=O)[C@H](C)[C@@H](O[C@H]2C[C@@](C)(OC)[C@@H](O)[C@H](C)O2)[C@H](C)[C@@H](O[C@@H]2O[C@H](C)C[C@H](N(C)C)[C@H]2O)[C@](C)(O)C[C@@H](C)CN(C)[C@H](C)[C@@H](O)[C@]1(C)O" , what value of MIC is listed for Pseudomonas aeruginosa ATCC 27853? ≥ 128 µg/mL

For the record "CC(C)(O/N=C(\C(=O)N[C@@H]1C(=O)N2C(C(=O)[O-])=C(C[n+]3ccccc3)CS[C@H]12)c1csc(N)n1)C(=O)O" , what value of MIC is listed for Pseudomonas aeruginosa ATCC 27853? ≥ 4 µg/mL

---

Tested on: Pseudomonas aeruginosa PAO1
experimental.protocol: Evaluation test for disinfecting effect, broth dilution method CLSI(M7-A7)2006
Assay type: cell-based
cond: PAO1, 18 h, read-out: MIC (µg/mL) S
Where a name gives a salt, the structure may show the parent alone.
As shown below, each of these compounds has a reported MIC value.

Reported MIC, compound CCCCCCCCCC(=O)NC1CCNCC1 [Hydrochloride salt of Compound 1b-2, N-(piperidin-4-yl) decanoyl amide] : ____ ≥ 1020 µg/mL

---

As shown below, each of these molecules has a reported MIC value.
Test system: Escherichia coli ATCC 25922
experimental.protocol: Evaluation test for disinfecting effect, broth dilution method CLSI(M7-A7)2006
Assay type: cell-based
cond: ATCC25922, 18 h, read-out: MIC (µg/mL) S
Counter-ions that a name gives are not always drawn.

Illustrative cases are given below, each with its answer.
Reported MIC, molecule CCCCCCCCCCCC(=O)NC1CCNCC1 [Hydrochloride salt of Compound 1b-1, N-(piperidin-4-yl) dodecanoyl amide] : ____ ≥ 16 µg/mL

Reported MIC, molecule CCCCCCCCCC(=O)NC1CCNC1 (stereo not shown) [Hydrochloride salt of Compound 1a-2, N-(pyrrolidin-3-yl) decanoyl amide] : ____ ≥ 256 µg/mL

Reported MIC, molecule CCCCCCCCCC(=O)NC1CCNCC1 [Hydrochloride salt of Compound 1b-2, N-(piperidin-4-yl) decanoyl amide] : ____ ≥ 256 µg/mL

Others:
Reported MIC, molecule CCCCCCCCCCCC(=O)NC1CCNC1 (stereo not shown) [Hydrochloride salt of Compound 1a-1, N-(pyrrolidin-3-yl) dodecanoyl amide] : ____ ≥ 16 µg/mL

---

Test system: Pseudomonas aeruginosa ATCC 27853
experimental.protocol: Evaluation test for disinfecting effect, broth dilution method CLSI(M7-A7)2006
Assay type: cell-based
cond: ATCC27853, 18 h, read-out: MIC (µg/mL) R
Counter-ions that a name gives are not always drawn.
readout.name: MIC

Illustrative cases are given below, each with its answer.
Reported MIC, molecule CCCCCCCCCCCC(=O)NC1CCNC1 (stereo not shown) [Hydrochloride salt of Compound 1a-1, N-(pyrrolidin-3-yl) dodecanoyl amide] : ____ ≤ 32 µg/mL

Reported MIC, molecule CCCCCCCCCC(=O)NC1CCNCC1 [Hydrochloride salt of Compound 1b-2, N-(piperidin-4-yl) decanoyl amide] : ____ ≤ 512 µg/mL

Others:
Reported MIC, molecule CCCCCCCCCCCC(=O)NC1CCNCC1 [Hydrochloride salt of Compound 1b-1, N-(piperidin-4-yl) dodecanoyl amide] : ____ ≤ 32 µg/mL

Reported MIC, molecule CCCCCCCCCC(=O)NC1CCNC1 (stereo not shown) [Hydrochloride salt of Compound 1a-2, N-(pyrrolidin-3-yl) decanoyl amide] : ____ ≤ 512 µg/mL

---

As shown below, each of these molecules has a reported MIC value.
Tested on: Staphylococcus aureus ATCC 29213
experimental.protocol: Evaluation test for disinfecting effect, broth dilution method CLSI(M7-A7)2006
Format: cell-based
cond: ATCC29213, 18 h, read-out: MIC (µg/mL) R
Counter-ions that a name gives are not always drawn.

For the record CCCCCCCCCCCC(=O)NC1CCNC1 (stereo not shown) [Hydrochloride salt of Compound 1a-1, N-(pyrrolidin-3-yl) dodecanoyl amide] , what value of MIC is listed for Staphylococcus aureus ATCC 29213? ≤ 4 µg/mL

For the record CCCCCCCCCCCC(=O)NC1CCNCC1 [Hydrochloride salt of Compound 1b-1, N-(piperidin-4-yl) dodecanoyl amide] , what value of MIC is listed for Staphylococcus aureus ATCC 29213? ≤ 4 µg/mL

For the record CCCCCCCCCC(=O)NC1CCNCC1 [Hydrochloride salt of Compound 1b-2, N-(piperidin-4-yl) decanoyl amide] , what value of MIC is listed for Staphylococcus aureus ATCC 29213? ≤ 128 µg/mL

We next turn to a different molecule, shown below.
For the record CCCCCCCCCC(=O)NC1CCNC1 (stereo not shown) [Hydrochloride salt of Compound 1a-2, N-(pyrrolidin-3-yl) decanoyl amide] , what value of MIC is listed for Staphylococcus aureus ATCC 29213? ≤ 128 µg/mL

---

Tested on: Pseudomonas aeruginosa PAO1
experimental.protocol: Evaluation test for disinfecting effect, broth dilution method CLSI(M7-A7)2006
Type: cell-based
cond: PAO1, S (susceptible): concentration which caused 80% or more reduction in diameter of the aggregation, 37°C, 18 hours, read-out: MIC (µg/mL) S
As shown below, each of these compounds has a reported MIC value.

Reported MIC, compound CC1(C)S[C@@H]2[C@H](NC(=O)C(C(=O)O)c3ccccc3)C(=O)N2[C@H]1C(=O)O (stereo partly shown) : ____ ≥ 128 µg/mL

Reported MIC, compound "NC[C@H]1O[C@H](O[C@H]2[C@H](O)[C@@H](O[C@H]3O[C@H](CO)[C@@H](O)[C@H](N)[C@H]3O)[C@H](N)C[C@@H]2N)[C@H](N)C[C@@H]1O" : ____ > 1 µg/mL

Reported MIC, compound "CC(C)(O/N=C(\C(=O)N[C@@H]1C(=O)N2C(C(=O)[O-])=C(C[n+]3ccccc3)CS[C@H]12)c1csc(N)n1)C(=O)O" : ____ ≥ 2 µg/mL

Others:
Reported MIC, compound "CC[C@H]1OC(=O)[C@H](C)[C@@H](O[C@H]2C[C@@](C)(OC)[C@@H](O)[C@H](C)O2)[C@H](C)[C@@H](O[C@@H]2O[C@H](C)C[C@H](N(C)C)[C@H]2O)[C@](C)(O)C[C@@H](C)CN(C)[C@H](C)[C@@H](O)[C@]1(C)O" : ____ ≥ 128 µg/mL

---

As shown below, each of these compounds has a reported MIC value.
Tested on: Escherichia coli ATCC 25922
experimental.protocol: Evaluation test for disinfecting effect, broth dilution method CLSI(M7-A7)2006
Format: cell-based
cond: ATCC25922, I (Intermediate): concentration that cannot be measured visually, 37°C, 18 hours, read-out: MIC (µg/mL) I
Kindly answer with a numeric value in µg/mL, unit omitted.

For the record "CC[C@H]1OC(=O)[C@H](C)[C@@H](O[C@H]2C[C@@](C)(OC)[C@@H](O)[C@H](C)O2)[C@H](C)[C@@H](O[C@@H]2O[C@H](C)C[C@H](N(C)C)[C@H]2O)[C@](C)(O)C[C@@H](C)CN(C)[C@H](C)[C@@H](O)[C@]1(C)O" , what value of MIC is listed for Escherichia coli ATCC 25922? 4

For the record "NC[C@H]1O[C@H](O[C@H]2[C@H](O)[C@@H](O[C@H]3O[C@H](CO)[C@@H](O)[C@H](N)[C@H]3O)[C@H](N)C[C@@H]2N)[C@H](N)C[C@@H]1O" , what value of MIC is listed for Escherichia coli ATCC 25922? 0.5

For the record "CC(C)(O/N=C(\C(=O)N[C@@H]1C(=O)N2C(C(=O)[O-])=C(C[n+]3ccccc3)CS[C@H]12)c1csc(N)n1)C(=O)O" , what value of MIC is listed for Escherichia coli ATCC 25922? 0.125

For the record CC1(C)S[C@@H]2[C@H](NC(=O)C(C(=O)O)c3ccccc3)C(=O)N2[C@H]1C(=O)O (stereo partly shown) , what value of MIC is listed for Escherichia coli ATCC 25922? 16
